Overview of reported inhibition at 1 µM across a group of molecules:
# study_target: Human Recombinant Matriptase 2 (Homo sapiens)
# Construct: purchased Enzo Life Sciences (an in-house preparation was also used) ALX-201-752-1
# experiment_summary: Matriptase 2 fluorescence based inhibition assay, Method B (50 mM TRIS pH 7.5, 150 mM NaCl, 0.01% gelatin)
# Assay type: biochemical
# recorded_conditions: 1 uM compound; Assay Used = B; read-out: Mar-2 % inhibition at 1 uM

Consider the following illustrative entries.
molecule	value_observed
N=C(N)c1ccc2cc(C(=O)NC34CC5C[C@H](C3)C[C@](O)(C5)C4)n(Cc3cccc4ccccc34)c2c1 (stereo in doubt)	25 to 50%
N=C(N)c1ccc2cc(C(=O)OCCNC(N)=O)n(Cc3cc(Oc4ncccn4)cc4ccccc34)c2c1	75 to 100%
CN1CCC(CNC(=O)c2cc3ccc(C(=N)N)cc3n2Cc2cccc3ccccc23)CC1	75 to 100%
N=C(N)c1ccc2cc(C(=O)Nc3cccc(-c4ncc[nH]4)c3)n(Cc3cccc4ccccc34)c2c1	25 to 50%
CN1CC[C@@H](NC(=O)c2cc3ccc(C(=N)N)cc3n2Cc2cccc3ccccc23)C1	75 to 100%

Query :: Query: inhibition at 1 µM; subject: N=C(N)c1ccc2cc(C(=O)NCc3ccc(CO)cc3)n(Cc3cccc4ccccc34)c2c1
Result :: 50 to 75%

Query :: Check COc1ccc2c(Cn3c(C(=O)N[C@H]4CC[C@H](N)CC4)cc4ccc(C(=N)N)cc43)cccc2c1 too.
Result :: 75 to 100%

###

# study_target: Human Recombinant Matriptase 2 (Homo sapiens)
# Construct: purchased Enzo Life Sciences (an in-house preparation was also used) ALX-201-752-1
# experiment_summary: Matriptase 2 fluorescence based inhibition assay, Method B (50 mM TRIS pH 7.5, 150 mM NaCl, 0.01% gelatin)
# Format: biochemical
# recorded_conditions: compound at 1 uM; Assay Used: B; read-out: Mar-2 % inhibition at 1 uM
value_kind: inhibition at 1 µM

structure_string	value_kind	value_observed
N=C(N)c1ccc2cc(C(=O)N[C@H]3CC[C@H](N)CC3)n(CCCc3cccc4ccccc34)c2c1	inhibition at 1 µM	0 to 25%
C[C@@H](c1cccc2ccccc12)n1c(C(=O)N[C@H]2CC[C@H](N)CC2)cc2ccc(/C(N)=N/O)cc21	inhibition at 1 µM	0 to 25%
N=C(N)c1ccc2cc(C(=O)N[C@H]3CC[C@H](N)CC3)n(Cc3cc(CO)cc4ccccc34)c2c1	inhibition at 1 µM	25 to 50%
Cc1cccc2sc(Cn3c(C(=O)N[C@H]4CC[C@H](N)CC4)cc4ccc(C(=N)N)cc43)cc12	inhibition at 1 µM	25 to 50%
N=C(N)c1ccc2cc(C(=O)N[C@H]3CC[C@H](N)CC3)n(Cc3cccc4c3CCCC4)c2c1	inhibition at 1 µM	25 to 50%

Query :: Query: inhibition at 1 µM; subject: COC(=O)c1cc2c(Cn3c(C(=O)N[C@H]4CC[C@H](N)CC4)cc4ccc(C(=N)N)cc43)cccc2s1
Result :: 50 to 75%

Query :: Check N=C(N)c1ccc2cc(C(=O)NCCc3c[nH]c4ccc(O)cc34)n(Cc3cc(Oc4ncccn4)cc4ccccc34)c2c1 too.
Result :: 25 to 50%

Query :: Check CCOC(=O)c1cc(Cn2c(C(=O)N[C@H]3CC[C@H](N)CC3)cc3ccc(C(=N)N)cc32)c2ccccc2c1 too.
Result :: 75 to 100%

Query :: Check N=C(N)c1ccc2cc(C(=O)N[C@H]3CC[C@H](N)CC3)n(Cc3cccc4sc(CO)cc34)c2c1 too.
Result :: 50 to 75%

Query :: Check N=C(N)c1ccc2cc(C(=O)N[C@H]3CC[C@H](N)CC3)n(Cc3cccc4ccsc34)c2c1 too.
Result :: 50 to 75%

Query :: Check N/C(=N\O)c1ccc2cc(C(=O)NC3CCNCC3)n(Cc3cccc4ccccc34)c2c1 too.
Result :: 25 to 50%

Query :: Check COC(=O)c1ccc(Cn2c(C(=O)N[C@H]3CC[C@H](N)CC3)cc3ccc(C(=N)N)cc32)c2ccccc12 too.
Result :: 75 to 100%

###

Overview of reported inhibition at 1 µM across a group of molecules:
# study_target: Human Recombinant Matriptase 2 (Homo sapiens)
# Construct: purchased Enzo Life Sciences (an in-house preparation was also used) ALX-201-752-1
# experiment_summary: Matriptase 2 fluorescence based inhibition assay, Method B (50 mM TRIS pH 7.5, 150 mM NaCl, 0.01% gelatin)
# Type: biochemical
# recorded_conditions: 1 uM compound; Assay Used = B; read-out: Mar-2 % inhibition at 1 uM

molecule	inhibition at 1 µM
N=C(N)c1ccc2cc(C(=O)NCCCCN)n(Cc3cccc4ccccc34)c2c1	75 to 100%
N=C(N)c1ccc2cc(C(=O)N[C@H]3CC[C@H](N)CC3)n(Cc3cc(Cl)cc(Cl)c3)c2c1	25 to 50%
N=C(N)c1ccc2cc(C(=O)N[C@H]3CC[C@H](N)CC3)n(-c3cccc4ccccc34)c2c1	25 to 50%
N=C(N)c1ccc2cc(C(=O)N[C@H]3CC[C@H](N)CC3)n(C(C(=O)O)c3cccc4ccccc34)c2c1 (stereo partly drawn)	0 to 25%

Query :: Query: inhibition at 1 µM; subject: N=C(N)c1ccc2cc(C(=O)N3CC[C@@H](N)C3)n(Cc3cccc4ccccc34)c2c1
Result :: 50 to 75%

Query :: Check CC(C)(C)OC(=O)N[C@H]1CC[C@H](NC(=O)c2cc3ccc(C(=N)N)cc3n2CCc2ccc3ccccc3c2)CC1 too.
Result :: 25 to 50%

Query :: Check Cc1cc(C)nc(Oc2cc(Cn3c(C(=O)O)cc4ccc(C(=N)N)cc43)c3ccccc3c2)n1 too.
Result :: 25 to 50%

Query :: Check CNC(=O)c1cc2ccc(C(=N)N)cc2n1Cc1cc(Oc2ncccn2)cc2ccccc12 too.
Result :: 75 to 100%

Query :: Check COC(=O)[C@H]1CC[C@H](NC(=O)c2cc3ccc(C(=N)N)cc3n2Cc2cccc3ccccc23)CC1 too.
Result :: 25 to 50%

Query :: Check CC(C)(C)OC(=O)NC(=N)c1ccc2cc(C(=O)N[C@H]3CC[C@H](O)CC3)n(Cc3cccc4ccccc34)c2c1 too.
Result :: 25 to 50%

Query :: Check CNC(=N)c1ccc2cc(C(=O)N[C@H]3CC[C@H](N)CC3)n(Cc3ccc4ccccc4c3)c2c1 too.
Result :: 0 to 25%

Query :: Check N=C(N)c1ccc2cc(C(=O)N3CC4CC3CN4)n(Cc3cccc4ccccc34)c2c1 (stereo not drawn) too.
Result :: 75 to 100%

Query :: Check N=C(N)c1ccc2c(F)c(C(=O)O)n(Cc3cccc4ccccc34)c2c1 too.
Result :: 50 to 75%

Query :: Check NC(=O)c1ccc2cc(-c3nnc([C@H]4CC[C@H](N)CC4)s3)n(Cc3cccc4ccccc34)c2c1 too.
Result :: 0 to 25%

Query :: Check CN1CCC(NC(=O)c2cc3ccc(C(=N)N)cc3n2Cc2cccc3ccccc23)CC1 too.
Result :: 75 to 100%

###

# study_target: Human Recombinant Matriptase 2 (Homo sapiens)
# Construct: purchased Enzo Life Sciences (an in-house preparation was also used) ALX-201-752-1
# experiment_summary: Matriptase 2 fluorescence based inhibition assay, Method B (50 mM TRIS pH 7.5, 150 mM NaCl, 0.01% gelatin)
# Format: biochemical
# recorded_conditions: 1 uM compound; Assay Used = B (Method B); read-out: Mar-2 % inhibition at 1 uM
value_kind: inhibition at 1 µM

Query :: Form field - read-out: inhibition at 1 µM; system: Human Recombinant Matriptase 2 (Homo sapiens); submitted item: CO/N=C(\N)c1ccc2cc(C(=O)OC)n(Cc3cccc4ccccc34)c2n1
Result :: 0 to 25%

Query :: Check CCOC(=O)c1cc2ccc(C(=N)NC(=O)OCC(C)C)cc2n1Cc1cc(Oc2ncccn2)cc2ccccc12 too.
Result :: 0 to 25%

Query :: Check NCc1ccc2cc(C(=O)N[C@H]3CC[C@@H](N)CC3)n(Cc3cccc4ccccc34)c2c1 too.
Result :: 50 to 75%

Query :: Check N=C(N)c1ccc2cc(C(=O)N[C@H]3CC[C@@H](N)CC3)n(Cc3csc4ccccc34)c2n1 too.
Result :: 75 to 100%

Query :: Check CS(=O)(=O)N[C@H]1CC[C@@H](NC(=O)c2cc3ccc(C(=N)N)cc3n2Cc2cccc3ccccc23)CC1 too.
Result :: 75 to 100%

###

# study_target: Human Recombinant Matriptase 2 (Homo sapiens, UniProt Q8IU80)
# Construct: purchased Enzo Life Sciences (an in-house preparation was also used) ALX-201-752-1
# Sequence (Q8IU80 1-811): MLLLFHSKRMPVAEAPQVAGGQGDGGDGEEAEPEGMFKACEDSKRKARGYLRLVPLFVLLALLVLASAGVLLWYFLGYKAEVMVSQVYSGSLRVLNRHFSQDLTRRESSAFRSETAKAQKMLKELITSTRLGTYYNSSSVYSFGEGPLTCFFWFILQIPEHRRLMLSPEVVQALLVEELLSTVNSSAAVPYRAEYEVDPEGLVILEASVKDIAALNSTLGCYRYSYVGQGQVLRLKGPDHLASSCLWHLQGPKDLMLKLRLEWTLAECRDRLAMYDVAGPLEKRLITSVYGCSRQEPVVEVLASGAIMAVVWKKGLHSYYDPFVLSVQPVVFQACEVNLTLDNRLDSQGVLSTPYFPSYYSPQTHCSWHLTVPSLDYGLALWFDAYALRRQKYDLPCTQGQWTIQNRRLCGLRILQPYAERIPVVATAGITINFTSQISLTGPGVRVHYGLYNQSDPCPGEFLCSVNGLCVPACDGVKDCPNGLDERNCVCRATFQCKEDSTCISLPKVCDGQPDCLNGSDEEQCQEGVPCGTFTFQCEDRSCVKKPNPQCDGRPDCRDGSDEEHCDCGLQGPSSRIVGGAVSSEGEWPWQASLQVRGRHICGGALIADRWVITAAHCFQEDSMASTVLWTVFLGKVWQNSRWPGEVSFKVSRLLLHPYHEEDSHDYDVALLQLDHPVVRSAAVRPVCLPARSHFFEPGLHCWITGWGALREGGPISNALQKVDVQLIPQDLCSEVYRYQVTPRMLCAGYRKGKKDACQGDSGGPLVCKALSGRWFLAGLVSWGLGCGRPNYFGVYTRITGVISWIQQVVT
# experiment_summary: Matriptase 2 fluorescence based inhibition assay, Method A (100 mM TRIS pH 9, 1 mg/mL BSA)
# Format: biochemical
# recorded_conditions: at 1 uM; Assay Used = A; read-out: Mar-2 % inhibition at 1 uM
Overview of reported inhibition at 1 µM across a group of molecules:

Consider the following illustrative entries.
molecule	inhibition at 1 µM
CCOC(=O)Nc1c(C(=O)N[C@H]2CC[C@H](N)CC2)n(Cc2ccc(Oc3ccccc3)cc2)c2cc(C(=N)NO)ccc12 [Compound I-254]	25 to 50%
CC(C)c1ccc(Cn2c(C(=O)N3CCC(CF)CC3)cc3ccc(C(=N)N)cc32)cc1 [Compound I-297]	0 to 25%
N=C(N)c1ccc2cc(C(=O)N[C@H]3CC[C@H](N)CC3)n(Cc3cccc(Oc4ccccc4)c3)c2c1 [Compound I-240]	50 to 75%
C[C@@H](O)CNC(=O)c1cc2ccc(C(=N)N)cc2n1Cc1ccc(C(N)=O)cc1 [Compound I-207]	0 to 25%
N=C(N)c1ccc2c(N)c(C(=O)N3CCC(CCN)CC3)n(Cc3ccc(Oc4ccccc4)cc3)c2c1 [Compound I-348]	0 to 25%
N=C(N)c1ccc2cc(C(=O)NC3CCC(F)(F)CC3)n(Cc3cccc(C(N)=O)c3)c2c1 [Compound I-230]	0 to 25%

Query :: Query: inhibition at 1 µM; subject: N=C(N)NCCC1CCN(C(=O)c2cc3ccc(C(=N)N)cc3n2Cc2ccc3ccccc3c2)CC1 [Compound I-360]
Result :: 25 to 50%

Query :: Check N=C(N)c1ccc2cc(C(=O)N3CC[C@@H](N4CCOCC4)C3)n(Cc3ccc(C(N)=O)cc3)c2c1 [Compound I-333] too.
Result :: 0 to 25%

Query :: Check N=C(N)c1ccc2c(Cl)c(C(=O)N[C@H]3CC[C@H](N)CC3)n(Cc3ccc(Oc4ccccc4)cc3)c2c1 [Compound I-251] too.
Result :: 25 to 50%

Query :: Check CC1CCC(NC(=O)c2cc3ccc(C(=N)N)cc3n2Cc2ccc(C(=O)N(C)C)cc2)CC1 (centres unmarked) [Compound I-218] too.
Result :: 0 to 25%

Query :: Check N=C(N)c1ccc2cc(C(=O)NC3CCC(F)(F)CC3)n(Cc3cccc(NC(=O)CCN)c3)c2c1 [Compound I-260] too.
Result :: 0 to 25%

Query :: Check N=C(N)c1ccc2cc(C(=O)N3CC[C@H](F)C3)n(Cc3ccc(NC(=O)CCN)cc3)c2c1 [Compound I-375] too.
Result :: 0 to 25%

Query :: Check N=C(N)c1ccc2cc(C(=O)NC34CC5CC(CC(O)(C5)C3)C4)n(Cc3ccc(Oc4ccc(F)cc4)cc3)c2c1 [Compound I-244] too.
Result :: 25 to 50%

Query :: Check N=C(N)c1ccc2cc(C(=O)N3CCC(C(=O)NCCN)CC3)n(CCc3ccccc3)c2c1 [Compound I-357] too.
Result :: 0 to 25%

Query :: Check N=C(N)c1ccc2cc(C(=O)N3CCC(F)(F)C3)n(Cc3ccc(Oc4ccccc4)cc3)c2c1 [Compound I-314] too.
Result :: 0 to 25%

Query :: Check N=C(N)c1ccc2cc(C(=O)N3CCc4ccccc4C3)n(Cc3ccc(NC(=O)CCN)cc3)c2c1 [Compound I-378] too.
Result :: 0 to 25%

Query :: Check CCNC(=O)c1ccc(Cn2c(C(=O)NC3CCC(C)CC3)cc3ccc(C(=N)N)cc32)cc1 (centres unmarked) [Compound I-221] too.
Result :: 0 to 25%

Query :: Check N=C(N)NCCCNC(=O)C1CCN(C(=O)c2cc3ccc(C(=N)N)cc3n2Cc2ccc(C(F)(F)F)cc2)CC1 [Compound I-359] too.
Result :: 25 to 50%
